Each entry below lists one item and its recorded growth value.
System: MDA-MB-231 breast
Assay: NCI-60 one-dose screen, 48 h (100 = growth as untreated, 0 = no growth, -100 = all killed)
Conditions: 10 µM unless noted
This is part of a sample that, as a whole, favours compounds with a hit. Of some 83,000 tested, about 20% had one in any assay.
Supply the numeric figure in %, leaving out any unit text.

• O=C1C(Cl)=C(Cl)C(=O)c2c1nc1n2CCCC1 = 96.2
• CC/C(Cc1ccccc1)=C(\c1ccc(OCCN2CCCC2)cc1)c1ccc(OC(C)=O)cc1 = 99.6
• Nc1cc2ccncc2c2ccccc12 = 64.1
• CCCCCCCCCCCCCCCCCCSC1=CC(=O)C(OC)=C(OC)C1=O = 93.5
• CC1=C(NCCN2CCCC2)C(=O)c2c(OCc3ccc(F)c(Cl)c3)cccc2C1=O = 59.1
• OCCNCCNc1c2ccccc2nc2ccccc12 = 57.9
• O=C(CCCCN1CCOCC1)Nc1ccc(Cn2nnc3c2C(=O)c2nnn(Cc4ccc(NC(=O)CCCCN5CCOCC5)cc4)c2C3=O)cc1 = -1.55
• COCCCNc1nc(NC(=O)c2ccc(F)cc2C)cc(-c2cccnc2)n1 = 81.1

I would be grateful if you could share the reported growth for CCCCCC(=O)N(CCCC)CCCC .
99.7

Would you mind doing COc1c(Cl)cc(Cl)cc1Cl as well?
92.2

Let us now turn to C=C1CCC2C3(C)COC(c4ccc(OC)cc4Br)OC3CCC2(C)C1/C=C/C1=CCOC1=O (configuration not stated)
78.7

Proceed to COc1ccc(C2CC(=O)Nc3c2c(C)nn3-c2nc3ccccc3[nH]2)cc1 (configuration not stated)
109

Queued: COc1cc(/C=C2\CN(C(=O)CCN3CCC(=NO)CC3)C/C(=C\c3cc(OC)c(OC)c(OC)c3)C2=O)cc(OC)c1OC
-73.5

Check COc1cccc(NC(=O)c2sc3nc4c(cc3c2N)CN(Cc2ccccc2)CC4)c1 too.
62.5

Same question for O=C(NC(Cc1ccccc1)C(=O)CCl)OCc1ccccc1 (configuration not stated) please.
73.9

What do we get for Cc1cc2cc3cc(C)c(N(C)C)cc3[n+](C)c2cc1N(C)C ?
57.1

And COc1cnc2c(c1)C(=O)c1c-2n(CCCN2CCNCC2)c(=O)c2cc([N+](=O)[O-])ccc12 ?
-77.4

Now consider Oc1ccc2c(=S)cc(-c3ccc(Br)cc3)oc2c1O .
3.73

Query COc1ccc(C(=O)c2sc3nc(-c4ccccc4OC)ccc3c2N)cc1OC next
64

Also CC(=O)O[C@H]1CC[C@]2(C)[C@H]3CC[C@@H]4[C@H]5[C@H](C(C)C)CC[C@]5(C(=O)OCC(CO)(CO)N=C(N)N)CC[C@@]4(C)[C@]3(C)CC[C@H]2C1(C)C , if possible.
42.1
